Assay: in vivo
Settings: mouse, intravenous, male Swiss C.D. mice, acid addition salts, read-out: Toxicity in mice LD50 I.V
Known LD50 of a selection of molecules
Enter your answer as a number in mg/kg; do not include the unit.

Example results:
query_smiles=COc1ccc2c(c1)C(=NOCCN(C)C)CCCO2 quantity_kind=LD50 quantitative_readout=35
query_smiles=Clc1ccc2c(c1)C(=NOCCN1CCCC1)CCCO2 quantity_kind=LD50 quantitative_readout=35

Now turn to the next molecule.
For record "CCN(CC)CCON=C1CCCOc2ccc(OC)cc21" the listed LD50 is 45

====

Known LD50 of a selection of compounds
Assay: in vivo
Settings: mouse, oral, male Swiss C.D. mice, acid addition salts, read-out: Toxicity in mice LD50 P.O.
Enter your answer as a number in mg/kg; do not include the unit.

compound="CCN(CC)CCON=C1CCCOc2ccc(OC)cc21 [Example 10]" quantity_kind=LD50 measurement_unit=mg/kg quantitative_readout=450

For record COc1ccc2c(c1)C(=NOCCN(C)C)CCCO2 [Example 9] the listed LD50 is 500

For record CCN(CC)CCON=C1CCCOc2ccc(Br)cc21 [Example 12] the listed LD50 is 250

====

Known LD50 of a selection of compounds
Assay: in vivo
Conditions: mouse, intravenous, male Swiss C.D. mice, acid addition salts, read-out: Toxicity in mice LD50 I.V
Enter your answer as a number in mg/kg; do not include the unit.

Example results:
query_smiles=CN(C)CCCON=C1CCCOc2ccc(Cl)cc21 measurement_unit=mg/kg quantitative_readout=60
query_smiles=Clc1ccc2c(c1)C(=NOCCN1CCOCC1)CCCO2 measurement_unit=mg/kg quantitative_readout=120
query_smiles=CN(C)CCON=C1CCCOc2ccc(Cl)cc21 measurement_unit=mg/kg quantitative_readout=32

For record "CCN(CC)CCON=C1CCCOc2ccc(Br)cc21" the listed LD50 is 40

For record "CCN(CC)CCO/N=C1/CCCOc2ccc(Cl)cc21" the listed LD50 is 37

====

Experiment: in vivo
Settings: mouse, oral, male Swiss C.D. mice, acid addition salts, read-out: Toxicity in mice LD50 P.O.
Known LD50 of a selection of compounds
Enter your answer as a number in mg/kg; do not include the unit.

Example results:
query_smiles=CCN(CC)CCO/N=C1/CCCOc2ccc(Cl)cc21 quantitative_readout=420
query_smiles=Clc1ccc2c(c1)C(=NOCCN1CCCC1)CCCO2 quantitative_readout=450

For record "CN(C)CCCON=C1CCCOc2ccc(Cl)cc21" the listed LD50 is 500

For record "CN(C)CCON=C1CCCOc2ccc(Cl)cc21" the listed LD50 is 150
